src = paper PMC2229623

In this section we review reported pKi values for a set of compounds.
TESTED_TARGET: CFTR (Homo sapiens)
Sequence (P13569 whole entry): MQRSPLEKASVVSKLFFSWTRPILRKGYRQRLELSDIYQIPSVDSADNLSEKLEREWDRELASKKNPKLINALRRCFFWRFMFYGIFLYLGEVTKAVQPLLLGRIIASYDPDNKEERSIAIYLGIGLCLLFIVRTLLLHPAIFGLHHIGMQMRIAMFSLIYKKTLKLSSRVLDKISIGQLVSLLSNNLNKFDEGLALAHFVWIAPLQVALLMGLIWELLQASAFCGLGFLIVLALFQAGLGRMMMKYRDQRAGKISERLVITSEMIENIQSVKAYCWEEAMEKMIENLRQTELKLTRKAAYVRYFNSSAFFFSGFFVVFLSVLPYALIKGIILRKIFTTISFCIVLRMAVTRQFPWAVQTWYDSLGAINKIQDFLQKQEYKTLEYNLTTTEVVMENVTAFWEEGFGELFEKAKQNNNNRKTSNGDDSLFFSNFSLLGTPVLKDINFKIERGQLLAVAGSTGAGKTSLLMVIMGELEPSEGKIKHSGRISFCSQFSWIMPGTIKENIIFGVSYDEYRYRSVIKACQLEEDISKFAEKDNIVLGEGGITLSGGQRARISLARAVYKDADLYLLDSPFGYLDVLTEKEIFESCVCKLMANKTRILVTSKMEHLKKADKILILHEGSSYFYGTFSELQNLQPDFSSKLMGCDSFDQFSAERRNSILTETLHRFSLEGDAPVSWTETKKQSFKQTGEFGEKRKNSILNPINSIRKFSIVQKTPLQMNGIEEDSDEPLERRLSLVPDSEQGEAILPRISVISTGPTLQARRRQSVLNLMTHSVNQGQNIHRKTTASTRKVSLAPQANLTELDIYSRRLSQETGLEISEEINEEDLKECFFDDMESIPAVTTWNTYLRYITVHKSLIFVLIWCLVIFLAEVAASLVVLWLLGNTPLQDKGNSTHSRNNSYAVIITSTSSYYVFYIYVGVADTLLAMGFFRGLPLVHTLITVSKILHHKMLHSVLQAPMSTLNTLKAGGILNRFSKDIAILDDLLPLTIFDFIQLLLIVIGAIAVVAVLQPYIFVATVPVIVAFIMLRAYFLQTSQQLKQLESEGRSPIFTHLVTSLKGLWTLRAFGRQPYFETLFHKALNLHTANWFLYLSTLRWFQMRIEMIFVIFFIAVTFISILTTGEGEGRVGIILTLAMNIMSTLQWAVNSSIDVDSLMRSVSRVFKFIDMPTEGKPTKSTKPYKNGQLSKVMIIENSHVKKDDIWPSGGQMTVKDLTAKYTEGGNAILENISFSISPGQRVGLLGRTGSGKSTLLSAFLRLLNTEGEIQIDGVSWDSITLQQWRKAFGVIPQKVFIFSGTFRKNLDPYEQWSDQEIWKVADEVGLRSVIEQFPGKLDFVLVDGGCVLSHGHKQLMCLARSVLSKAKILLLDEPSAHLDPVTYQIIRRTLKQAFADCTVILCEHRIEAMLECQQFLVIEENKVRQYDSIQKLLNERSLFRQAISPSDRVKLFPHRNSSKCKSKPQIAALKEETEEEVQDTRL
PROCEDURE_DETAILS: Apical Cl− current in CFTR-expressing FRT cells
Assay type: cell-based
EXPERIMENTAL_PARAMETERS: Ki is compound concentration giving 50% inhibition of apical membrane Cl− current in CFTR-expressing FRT cells
The quantity pKi is defined as the negative base-10 logarithm of the molar concentration.

| COMPOUND | TESTED_TARGET | pKi |
| --- | --- | --- |
| O=C(COc1ccc2ccccc2c1)NN=Cc1cc(Br)c(O)c(Br)c1 | CFTR (Homo sapiens) | 4.77 |
| CC(=NNC(=O)C(=O)Nc1ccc2ccccc2c1)c1cc(Br)c(O)c(Br)c1O | CFTR (Homo sapiens) | 5.52 |

For the next question, use this compound.
Query string: Give reported pKi for `O=C(NNCc1cc(Br)c(O)c(Br)c1)C(=O)Nc1ccc2ccccc2c1` (CFTR (Homo sapiens))
Result string: 4.92

----------
TESTED_TARGET: CFTR (Homo sapiens)
PROCEDURE_DETAILS: Apical Cl− current in CFTR-expressing FRT cells
EXPERIMENTAL_PARAMETERS: Ki is compound concentration giving 50% inhibition of apical membrane Cl− current in CFTR-expressing FRT cells
pKi: −log10 of the molar value.
ENDPOINT_NAME: pKi

Query string: Quickly give me recorded pKi for `O=C(CNc1cccc2ccccc12)NN=Cc1ccc(O)c(Br)c1`
Result string: 4.30 to 4.60

Query string: Quickly give me recorded pKi for `O=C(CNc1ccc2cc3ccccc3cc2c1)NN=Cc1cc(Br)c(O)c(Br)c1`
Result string: 4.30 to 4.60

Query string: Quickly give me recorded pKi for `O=C(CNc1ccc2ccccc2c1)NN=Cc1ccc(Br)cc1`
Result string: 4.30 to 4.60
